# Test Target: CDK5 CDK5R1 p25 (human) (UniProt Q00535+Q15078)
# Sequence (Q00535 whole entry, looked up): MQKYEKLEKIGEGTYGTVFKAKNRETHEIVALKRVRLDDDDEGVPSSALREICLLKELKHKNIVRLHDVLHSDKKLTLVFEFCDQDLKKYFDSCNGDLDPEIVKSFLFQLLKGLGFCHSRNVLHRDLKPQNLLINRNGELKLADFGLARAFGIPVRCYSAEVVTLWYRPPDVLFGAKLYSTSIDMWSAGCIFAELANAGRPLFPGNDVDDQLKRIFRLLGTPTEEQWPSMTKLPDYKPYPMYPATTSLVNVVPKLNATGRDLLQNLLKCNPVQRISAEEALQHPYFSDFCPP
# Sequence (Q15078 whole entry, looked up): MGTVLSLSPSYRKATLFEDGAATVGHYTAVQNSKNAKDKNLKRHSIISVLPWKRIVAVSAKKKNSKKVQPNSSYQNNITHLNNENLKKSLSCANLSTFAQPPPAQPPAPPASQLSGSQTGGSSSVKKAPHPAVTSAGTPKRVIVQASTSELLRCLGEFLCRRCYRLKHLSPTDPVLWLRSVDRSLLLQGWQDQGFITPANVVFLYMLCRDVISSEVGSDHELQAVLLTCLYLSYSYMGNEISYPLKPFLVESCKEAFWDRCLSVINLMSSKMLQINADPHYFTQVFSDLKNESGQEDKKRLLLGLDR
# Test Summary: radiometric filter-binding kinase assay, Kinase HotSpot
# Condition Set: compound 0.5 µM; ATP 10 µM
Endpoint: residual activity
The reply should consist of the numeric value with the unit placed after it.

-- ask What value of measured residual activity is listed for CCOc1nc(NC(=O)Cc2cc(OC)ccc2OC)cc(N)c1C#N ?
-- reply 96.8%

-- ask What value of measured residual activity is listed for NC(=O)c1ccc(-c2nc(-c3ccccn3)c(-c3ccc4c(c3)OCCO4)[nH]2)cc1 ?
-- reply 91%

-- ask What value of measured residual activity is listed for Cc1cc2ncc(-c3ccccc3)nc2cc1C ?
-- reply 96.6%

-- ask What value of measured residual activity is listed for Cc1cc(Nc2cc(N3CCN(C)CC3)nc(Sc3ccc(NC(=O)C4CC4)cc3)n2)[nH]n1 ?
-- reply 93.8%

-- ask What value of measured residual activity is listed for Nc1n[nH]c2nnc(-c3c(-c4ccccc4)nn4ccccc34)cc12 ?
-- reply 101%

-- ask What value of measured residual activity is listed for Nc1nc(Nc2ccc(S(N)(=O)=O)cc2)nn1C(=O)c1c(F)cccc1F ?
-- reply 2.54%

-- ask What value of measured residual activity is listed for O=c1cc(N2CCNCC2)oc2c(-c3ccccc3)cccc12 ?
-- reply 94.5%

-- ask What value of measured residual activity is listed for COc1ccc(-c2cnc3c(-c4ccsc4)cnn3c2)cc1 ?
-- reply 73%

-- ask What value of measured residual activity is listed for Nc1nc(Nc2ccc(S(N)(=O)=O)cc2)nn1C(=S)Nc1c(F)cccc1F ?
-- reply 0.156%

-- ask What value of measured residual activity is listed for O=C(Nc1ccc(Cl)cc1)c1ccccc1NCc1ccncc1 ?
-- reply 84.9%

-- ask What value of measured residual activity is listed for CCN1/C(=C/C(C)=O)Sc2ccc(OC)cc21 ?
-- reply 87.9%

-- ask What value of measured residual activity is listed for Clc1ccc(Nc2nnc(Cc3ccncc3)c3ccccc23)cc1 ?
-- reply 91.3%

-- ask What value of measured residual activity is listed for O=C1Nc2cc(Br)ccc2/C1=C1/Nc2ccccc2/C1=N\O ?
-- reply 20.4%

-- ask What value of measured residual activity is listed for COc1cc2nccc(Oc3ccc(NC(=S)NC(=O)c4ccccc4C)cc3)c2cc1OC ?
-- reply 93.2%

-- ask What value of measured residual activity is listed for CSc1nc(-c2ccc(F)cc2)c(-c2ccnc(NC(C)c3ccccc3)c2)[nH]1 (stereo not drawn) ?
-- reply 76.1%

-- ask What value of measured residual activity is listed for O=C1Cc2c([nH]c3ccc([N+](=O)[O-])cc23)-c2ccccc2N1 ?
-- reply 10.5%

-- ask What value of measured residual activity is listed for COc1cc2ncnc(Nc3ccc(F)c(Cl)c3)c2cc1OCCCN1CCOCC1 ?
-- reply 95.4%

-- ask What value of measured residual activity is listed for CS(=O)c1ccc(-c2nc(-c3ccc(F)cc3)c(-c3ccncc3)[nH]2)cc1 (stereo not drawn) ?
-- reply 90.6%

-- ask What value of measured residual activity is listed for O=C1Nc2ccccc2/C1=C\c1c(Cl)[nH]c2ccccc12 ?
-- reply 86%

-- ask What value of measured residual activity is listed for O=C(NC(NC(=S)Nc1ccc(F)c([N+](=O)[O-])c1)C(Cl)(Cl)Cl)C(c1ccccc1)c1ccccc1 (stereo not drawn) ?
-- reply 96.8%

-- ask What value of measured residual activity is listed for CC(C)[C@H](CO)Nc1nc(Nc2cccc(Cl)c2)c2ncn(C(C)C)c2n1 ?
-- reply 3.87%

-- ask What value of measured residual activity is listed for O=c1cc(-c2cccc3c2Sc2ccccc2S3)oc(N2CCOCC2)c1 ?
-- reply 96.8%

-- ask What value of measured residual activity is listed for CCCNC(=O)Nc1ccc(Oc2ncnc3cc(OC)c(OC)cc23)cc1Cl ?
-- reply 95.7%

-- ask What value of measured residual activity is listed for C#Cc1cccc(Nc2ncnc3cc(OCCOC)c(OCCOC)cc23)c1 ?
-- reply 90.5%

-- ask What value of measured residual activity is listed for Oc1ccc(-c2nc(-c3ccc(F)cc3)c(-c3ccncc3)[nH]2)cc1 ?
-- reply 96%

-- ask What value of measured residual activity is listed for Cc1ccc(NC(=O)c2ccc(CN3CCN(C)CC3)cc2)cc1Nc1nc(-c2cccnc2)cs1 ?
-- reply 104%

-- ask What value of measured residual activity is listed for NC(=O)c1ccc(N(C(N)=O)c2c(F)cccc2F)nc1-c1ccc(F)cc1F ?
-- reply 95.9%

-- ask What value of measured residual activity is listed for CC(C)n1cnc2c(Nc3cccc(Cl)c3)nc(NCCO)nc21 ?
-- reply 26.2%
